Reported pIC50 values for the following compounds.
Biological target: Cholecystokinin receptor type A (Homo sapiens, UniProt P32238)
Sequence (P32238 whole entry): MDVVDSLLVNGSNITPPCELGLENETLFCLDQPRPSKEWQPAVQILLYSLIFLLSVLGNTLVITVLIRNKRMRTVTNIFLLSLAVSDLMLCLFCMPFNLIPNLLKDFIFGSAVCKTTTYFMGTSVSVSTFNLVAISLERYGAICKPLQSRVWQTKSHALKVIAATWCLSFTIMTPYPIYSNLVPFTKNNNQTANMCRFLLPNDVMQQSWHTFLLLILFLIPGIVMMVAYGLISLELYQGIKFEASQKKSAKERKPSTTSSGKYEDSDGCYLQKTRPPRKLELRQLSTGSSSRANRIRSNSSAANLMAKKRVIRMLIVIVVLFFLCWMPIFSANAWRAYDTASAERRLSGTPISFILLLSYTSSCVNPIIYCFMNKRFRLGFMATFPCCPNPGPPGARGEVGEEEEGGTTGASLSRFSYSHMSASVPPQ
Experiment: Displacement of [125I]CCK-8(SO3) from human CCK1 receptor expressed in human HEK293 cells
Please express pIC50 as -log10 of the molar concentration.

{"COMPOUND": "N=C(N)NCCC[C@@H]1NC(=O)[C@H](Cc2ccc(Cl)cc2)NC(=O)[C@H](Cc2cnc[nH]2)NC(=O)CNC(=O)[C@H](NC(=O)[C@@H](N)Cc2ccc(O)cc2)CC(=O)NCCCC[C@@H](C(=O)N[C@@H](CC(=O)O)C(=O)N[C@H](Cc2ccccc2)C(N)=O)NC(=O)[C@H](Cc2cc3ccccc3[nH]2)NC1=O", "pIC50": 6.90}
{"COMPOUND": "CCCC[C@H](NC(=O)[C@H](Cc1c[nH]c2ccccc12)NC(=O)[C@H](CCCN=C(N)N)NC(=O)[C@@H](Cc1ccc2ccccc2c1)NC(=O)[C@H](Cc1cnc[nH]1)NC(=O)[C@H]1Cc2ccccc2CN1C(=O)[C@@H](N)Cc1c(C)cc(O)cc1C)C(=O)N[C@@H](CC(=O)O)C(=O)N[C@@H](Cc1ccccc1)C(N)=O", "pIC50": 7.50}

Proceed to the following item.
For this compound ( CCCC[C@H](NC(=O)[C@H](Cc1c[nH]c2ccccc12)NC(=O)[C@H](CCCNC(=N)N)NC(=O)[C@@H](Cc1ccc2ccccc2c1)NC(=O)[C@H](Cc1cnc[nH]1)NC(=O)[C@@H]1Cc2ccccc2CN1C(=O)C(N)Cc1c(C)cc(O)cc1C)C(=O)N[C@@H](CC(=O)O)C(=O)N[C@@H](Cc1ccccc1)C(N)=O (single isomer, unassigned) ), measured pIC50 is 7.80
